Test system: E. coli GC 1073
Experiment: MIC, broth microdilution
Conditions: Escherichia coli, GC1073, E. coli GC 1073; Mouse Serum pre-incubation
Recorded measurements of MIC, one per entry

Reported MIC for CCCCN(CC(=O)Nc1cc(N(C)C)c2c(c1O)C(=O)C1=C(O)[C@]3(O)C(=O)C(C(N)=O)=C(O)[C@@H](N(C)C)[C@@H]3C[C@@H]1C2)C(=O)OCOC(=O)C(C)(C)C was 2 mg/L

Reported MIC for CCCCN(CC(=O)Nc1cc(N(C)C)c2c(c1O)C(=O)C1=C(O)[C@]3(O)C(=O)C(C(N)=O)=C(O)[C@@H](N(C)C)C3CC1C2)C(=O)OCOC(=O)C(C)C (stereo partly drawn) was 1 mg/L

Reported MIC for CCCN(CC(=O)Nc1cc(N(C)C)c2c(c1O)C(=O)C1=C(O)[C@]3(O)C(=O)C(C(N)=O)=C(O)[C@@H](N(C)C)[C@@H]3C[C@@H]1C2)C(=O)OCOC(=O)C(C)C was 0.5 mg/L

###

Recorded measurements of MIC, one per entry
System: S. aureus GC 6466
Assay: MIC, broth microdilution
Conditions: Staphylococcus aureus, GC6466, S. aureus GC 6466; Water pre-incubation
Your answer should be a plain number; it is taken to be in µg/mL.

For orientation, consider the following solved cases.
{"compound": "CCCN(CC(=O)Nc1cc(N(C)C)c2c(c1O)C(=O)C1=C(O)[C@]3(O)C(=O)C(C(N)=O)=C(O)[C@@H](N(C)C)[C@@H]3C[C@@H]1C2)C(=O)OCOC(=O)C(C)C [Example 10]", "u": "µg/mL", "MIC": 0.12}
{"compound": "CCCN(CC(=O)Nc1cc(N(C)C)c2c(c1O)C(=O)C1=C(O)[C@]3(O)C(=O)C(C(N)=O)=C(O)[C@@H](N(C)C)[C@@H]3C[C@@H]1C2)C(=O)OCOC(=O)C(C)(C)C [Example 9]", "u": "µg/mL", "MIC": 0.12}
{"compound": "CCCN(CC(=O)Nc1cc(N(C)C)c2c(c1O)C(=O)C1=C(O)[C@]3(O)C(=O)C(C(N)=O)=C(O)[C@@H](N(C)C)[C@@H]3C[C@@H]1C2)C(=O)OCc1ccccc1 [Example 14]", "u": "µg/mL", "MIC": 8}

Reported MIC for CCCN(CC(=O)Nc1cc(N(C)C)c2c(c1O)C(=O)C1=C(O)[C@]3(O)C(=O)C(C(N)=O)=C(O)[C@@H](N(C)C)[C@@H]3C[C@@H]1C2)C(=O)OCOC(=O)c1ccc(F)cc1 [Example 8] was 1

Reported MIC for CCCCN(CC(=O)Nc1cc(N(C)C)c2c(c1O)C(=O)C1=C(O)[C@]3(O)C(=O)C(C(N)=O)=C(O)[C@@H](N(C)C)[C@@H]3C[C@@H]1C2)C(=O)OCOC(=O)c1ccc(F)cc1 [Example 4] was 2

###

Recorded measurements of MIC, one per entry
System: E. faecium GC 2243
Experiment: MIC, broth microdilution
Details: Enterococcus faecium, GC2243, E. faecium GC 2243; Water pre-incubation
Your answer should be a plain number; it is taken to be in µg/mL.

For orientation, consider the following solved cases.
{"compound": "CCCN(CC(=O)Nc1cc(N(C)C)c2c(c1O)C(=O)C1=C(O)[C@]3(O)C(=O)C(C(N)=O)=C(O)[C@@H](N(C)C)[C@@H]3C[C@@H]1C2)C(=O)OCOC(=O)C(C)(C)C [Example 9]", "parameter": "MIC", "experimental value": 0.5}
{"compound": "CCCCN(CC(=O)Nc1cc(N(C)C)c2c(c1O)C(=O)C1=C(O)[C@]3(O)C(=O)C(C(N)=O)=C(O)[C@@H](N(C)C)[C@@H]3C[C@@H]1C2)C(=O)OCOC(=O)Cc1ccccc1 [Example 12]", "parameter": "MIC", "experimental value": 4}
{"compound": "CCCN(CC(=O)Nc1cc(N(C)C)c2c(c1O)C(=O)C1=C(O)[C@]3(O)C(=O)C(C(N)=O)=C(O)[C@@H](N(C)C)[C@@H]3C[C@@H]1C2)C(=O)OCOC(=O)c1ccc(C)cc1 [Example 5]", "parameter": "MIC", "experimental value": 1}
{"compound": "CCCN(CC(=O)Nc1cc(N(C)C)c2c(c1O)C(=O)C1=C(O)[C@]3(O)C(=O)C(C(N)=O)=C(O)[C@@H](N(C)C)[C@@H]3C[C@@H]1C2)C(=O)OCC(C)C [Example 16]", "parameter": "MIC", "experimental value": 8}
{"compound": "CCCCN(CC(=O)Nc1cc(N(C)C)c2c(c1O)C(=O)C1=C(O)[C@]3(O)C(=O)C(C(N)=O)=C(O)[C@@H](N(C)C)[C@@H]3C[C@@H]1C2)C(=O)OCOC(=O)c1ccc(F)cc1 [Example 4]", "parameter": "MIC", "experimental value": 2}

Reported MIC for CCCN(CC(=O)Nc1cc(N(C)C)c2c(c1O)C(=O)C1=C(O)[C@]3(O)C(=O)C(C(N)=O)=C(O)[C@@H](N(C)C)[C@@H]3C[C@@H]1C2)C(=O)OCc1ccccc1 [Example 14] was 4

Reported MIC for CCCN(CC(=O)Nc1cc(N(C)C)c2c(c1O)C(=O)C1=C(O)[C@]3(O)C(=O)C(C(N)=O)=C(O)[C@@H](N(C)C)[C@@H]3C[C@@H]1C2)C(=O)OCOC(=O)C1CCC1 [Example 7] was 0.12

###

System: E. coli GC 2270
Assay: MIC, broth microdilution
Conditions: Escherichia coli, GC2270, E. coli GC 2270; Mouse Serum pre-incubation
parameter: MIC (µg/mL)
Your answer should be a plain number; it is taken to be in µg/mL.

For orientation, consider the following solved cases.
{"compound": "CCCCN(CC(=O)Nc1cc(N(C)C)c2c(c1O)C(=O)C1=C(O)[C@]3(O)C(=O)C(C(N)=O)=C(O)[C@@H](N(C)C)[C@@H]3C[C@@H]1C2)C(=O)OCOC(=O)Cc1ccccc1 [Example 12]", "target or test system": "E. coli GC 2270", "MIC (µg/mL)": 0.5}
{"compound": "CCCN(CC(=O)Nc1cc(N(C)C)c2c(c1O)C(=O)C1=C(O)[C@]3(O)C(=O)C(C(N)=O)=C(O)[C@@H](N(C)C)[C@@H]3C[C@@H]1C2)C(=O)OCOC(=O)c1ccc(OC)cc1 [Example 6]", "target or test system": "E. coli GC 2270", "MIC (µg/mL)": 1}
{"compound": "CCCN(CC(=O)Nc1cc(N(C)C)c2c(c1O)C(=O)C1=C(O)[C@]3(O)C(=O)C(C(N)=O)=C(O)[C@@H](N(C)C)[C@@H]3C[C@@H]1C2)C(=O)OCC [Example 15]", "target or test system": "E. coli GC 2270", "MIC (µg/mL)": 64}
{"compound": "CCCCN(CC(=O)Nc1cc(N(C)C)c2c(c1O)C(=O)C1=C(O)[C@]3(O)C(=O)C(C(N)=O)=C(O)[C@@H](N(C)C)C3CC1C2)C(=O)OCOC(=O)C(C)C (stereo partly shown) [Example 1]", "target or test system": "E. coli GC 2270", "MIC (µg/mL)": 0.5}
{"compound": "CCCN(CC(=O)Nc1cc(N(C)C)c2c(c1O)C(=O)C1=C(O)[C@]3(O)C(=O)C(C(N)=O)=C(O)[C@@H](N(C)C)[C@@H]3C[C@@H]1C2)C(=O)OCOC(=O)Cc1ccccc1 [Example 11]", "target or test system": "E. coli GC 2270", "MIC (µg/mL)": 0.5}

Switching to the query record.
Reported MIC for CCCN(CC(=O)Nc1cc(N(C)C)c2c(c1O)C(=O)C1=C(O)[C@]3(O)C(=O)C(C(N)=O)=C(O)[C@@H](N(C)C)[C@@H]3C[C@@H]1C2)C(=O)OCOC(=O)C1CCC1 [Example 7] was 0.5

###

Test system: E. coli GC 2232
Experiment: MIC, broth microdilution
Conditions: Escherichia coli, GC2232, read-out: MINIMAL INHIBITORY CONCENTRATION MIC, Water
Recorded measurements of MIC, one per entry

For orientation, consider the following solved cases.
{"compound": "CN(C)c1cc(NC(=O)CN(C(=O)OCOC(=O)c2ccc(F)cc2)C(C)(C)C)c(O)c2c1C[C@H]1C[C@H]3[C@H](N(C)C)C(O)=C(C(N)=O)C(=O)[C@@]3(O)C(O)=C1C2=O [Example 52]", "MIC": "8 µg/mL"}
{"compound": "Cc1cc(C)cc(C(=O)OCOC(=O)N(CC(=O)Nc2cc(N(C)C)c3c(c2O)C(=O)C2=C(O)[C@]4(O)C(=O)C(C(N)=O)=C(O)[C@@H](N(C)C)[C@@H]4C[C@@H]2C3)C(C)(C)C)c1 [Example 51]", "MIC": "> 64 µg/mL"}
{"compound": "CCCCOC(=O)N(CC(=O)Nc1cc(N(C)C)c2c(c1O)C(=O)C1=C(O)[C@]3(O)C(=O)C(C(N)=O)=C(O)[C@@H](N(C)C)[C@@H]3C[C@@H]1C2)C(C)(C)C [Example 58]", "MIC": "> 64 µg/mL"}

Switching to the query record.
Reported MIC for CCC(=O)OCOC(=O)N(CC(=O)Nc1cc(N(C)C)c2c(c1O)C(=O)C1=C(O)[C@]3(O)C(=O)C(C(N)=O)=C(O)[C@@H](N(C)C)[C@@H]3C[C@@H]1C2)C(C)(C)C [Example 49] was 16 µg/mL

Measured values drawn from patent US20070049564A1 for this set.
